B1: RIPK4 (parent)
chain: VSVNAQTLDGRTPLHLAAQRGHYR

# Variants of: B1
# assay_remarks: protein stability index of a GFP-peptide fusion (GPS, HEK-293T) (PSI 1-6); higher = more stable;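 also: lentivirally expressed fusions sorted by FACS into six bins by GFP to DsRed ratio, PSI derived from sequencing read proportions per bin multiplied by bin number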
# condition_label: c terminus: a fixed tail appended
Reported protein stability index by item:
attribute_measured: protein stability index

INSERT INTO measurements (chain_sequence, attribute_measured, numeric_readout) VALUES
  ('VSVNAQTLDGRSPLHLAAQRGHYR [T12S]', 'protein stability index', 3.35),
  ('VSVNAQTLDGRTPLHLAAQRGHYE [R24E]', 'protein stability index', 2.87),
  ('VSVNAQTLDGETPLHLAAQRGHYR [R11E]', 'protein stability index', 3.78),
  ('VSVGAQTLDGRTPLHLAAQRGHYR [N4G]', 'protein stability index', 3.3),
  ('VSVNAQTLDGRTPLHLAAQRGHGR [Y23G]', 'protein stability index', 4.25),
  ('VIVNAQTLDGRTPLHLAAQRGHYR [S2I]', 'protein stability index', 2.18),
  ('VSVNAQTLDLRTPLHLAAQRGHYR [G10L]', 'protein stability index', 2.81),
  ('VSVNAQTLDGRHPLHLAAQRGHYR [T12H]', 'protein stability index', 2.68),
  ('VSVNAQTLDGRTPLHLAAQWGHYR [R20W]', 'protein stability index', 2.5),
  ('VSVNAVTLDGRTPLHLAAQRGHYR [Q6V]', 'protein stability index', 2.68),
  ('VSVNAQTLDGRTPLHLAAQRQHYR [G21Q]', 'protein stability index', 3.35),
  ('VSVNAQTLDGRTPLHLAAYRGHYR [Q19Y]', 'protein stability index', 2.63),
  ('VSVNAQTLDGRTPLHLAAQRRHYR [G21R]', 'protein stability index', 3.47),
  ('VSVNAQTLDGRTPLHLAAQRIHYR [G21I]', 'protein stability index', 2.24),
  ('VSVNAQTLDGRTPLHLAAPRGHYR [Q19P]', 'protein stability index', 2.67),
  ('VVVNAQTLDGRTPLHLAAQRGHYR [S2V]', 'protein stability index', 2.22),
  ('VSVNAQTLDGRTPLHLAAQRGWYR [H22W]', 'protein stability index', 2.23),
  ('VSVNGQTLDGRTPLHLAAQRGHYR [A5G]', 'protein stability index', 3.02),
  ('VSVNAQTIDGRTPLHLAAQRGHYR [L8I]', 'protein stability index', 3.58),
  ('VSVNAQTLDGRTPLHLTAQRGHYR [A17T]', 'protein stability index', 3.45),
  ('VSVNARTLDGRTPLHLAAQRGHYR [Q6R]', 'protein stability index', 3.02),
  ('VSVNYQTLDGRTPLHLAAQRGHYR [A5Y]', 'protein stability index', 3.1);
